Tested on: grafted B16 F0 murine melanoma tumour
Assay: Biodistribution of the ^125I-labelled molecules in the melanoma-bearing mouse (autoradiography of whole-body sections)
Conditions: 3 H after i.v. administration, ^125I-labelled compound
Structures can show the parent of a compound that is named as a salt.
Exam item: assign TRUE to entries whose Concentration of radioactivity, lungs, Mean is below 4 % ID/g and FALSE to entries at or above 4 % ID/g. Note that a value of exactly 4 % ID/g receives FALSE.

CCN(CC)CCNC(=O)c1ccc2cc(I)ccc2c1 [compound 3, hydrochloride] = FALSE

Is 4 % ID/g strictly greater than the compound's reported Concentration of radioactivity, lungs, Mean? compound: CCN(CC)CCNC(=O)c1nc2ccc(I)cc2[nH]1.Cl.Cl [compound 26]
TRUE

Is 4 % ID/g strictly greater than the compound's reported Concentration of radioactivity, lungs, Mean? compound: CCN(CC)CCNC(=O)c1ccc2cc(I)ccc2n1.Cl.Cl [compound 31]
FALSE

Is 4 % ID/g strictly greater than the compound's reported Concentration of radioactivity, lungs, Mean? compound: CCN(CC)CCNC(=O)c1nc2ccccn2c1I [compound 16, dihydrochloride]
TRUE

Is 4 % ID/g strictly greater than the compound's reported Concentration of radioactivity, lungs, Mean? compound: CCN(CC)CCNC(=O)c1cc2cc(I)ccc2[nH]1 [compound 10, hydrochloride]
TRUE
